# experiment_summary: viability of PTEN-null HCT116 cells – cell-based, HCT116 clonal line, CellTiter-Glo, pilot screen (AID 824);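 note: 0% = 20 µM Hyamine control and 100% = vehicle cell control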
# protocol_conditions: HCT116 PTEN-deleted viability, 60 h, at 10 µM, active compounds read low
Inconclusive results are not listed.
Readings of viability for the listed molecules
result_type: viability (%)

{"columns": ["molecule", "quantitative_result"],
 "data": [
  ["CCSCCOC(=O)C1=C(C)NC(=O)NC1c1cccc(OC)c1OC (stereo unspecified)", 96.9],
  ["Cc1cccc(Cc2c(C)nc3nc(SCC(=O)NCc4ccco4)nn3c2C)c1", 81.9],
  ["CCCSc1nnc(N2C(=O)CC(c3ccsc3)C3=C2CCCC3=O)s1 (stereo unspecified)", 89.6],
  ["CCOn1c(=O)c(=O)n(OCc2ccccc2)c2ccccc21", 92],
  ["c1csc(CCNc2ncnc3sc4c(c23)CCC4)c1", 50.1],
  ["O=C(Nc1ccc(CN2CCOCC2)cc1)c1cc2ccccn2n1", 95]
]}

====

Readings of inhibition for the listed molecules
# experiment_summary: growth suppression of yeast trafficking mutant, preliminary HTS, modulators of trafficking downstream of Golgi apparatus project, 1536-format plate, OD 615 nm (AID 637)
# protocol_conditions: yeast transport mutant growth, absorbance 615 nm, 18 h; active compounds read high
result_type: inhibition (%)

{"columns": ["molecule", "result_type", "quantitative_result"],
 "data": [
  ["O=C(Nc1ccccc1)C1=C(O)CC(c2ccoc2)CC1=Nc1ccccc1 (stereo unspecified)", "inhibition", 4.59],
  ["Cc1cc(C)c(NC(=O)Cn2cc3c(n2)CCCC3)c(C)c1", "inhibition", 5.74],
  ["O=C(CCS(=O)(=O)c1cccc2nsnc12)NCc1ccccc1", "inhibition", -4.6],
  ["Cc1ccc(S(=O)(=O)NCCOC(=O)Nc2sc(=S)n(C)c2C)cc1", "inhibition", 14.9],
  ["COC(=O)c1ccc(NC(=O)C2C3CCC(C3)C2C(=O)O)cc1 (stereo unspecified)", "inhibition", 6.55],
  ["Cc1ccc(C(=O)OCC(=O)Nc2ccc3c(c2)OCO3)o1", "inhibition", -5.87],
  ["Oc1cccc(C=NCc2ccccc2)c1O", "inhibition", -0.5],
  ["CCOC(=O)c1cc2c(=O)n3ccccc3nc2n(CCCOC)c1=NC(=O)C(C)(C)C", "inhibition", -3.17],
  ["COC(=O)c1ccc(-c2nn(C)c(=O)c3ccccc23)cc1", "inhibition", 4.17],
  ["COC(=O)Cn1c(=O)c2c(nc3n2CC(C)CN3c2ccc(C)c(C)c2)n(C)c1=O (stereo unspecified)", "inhibition", -3.5],
  ["O=C(c1ccc2snnc2c1)N1CCOCC1", "inhibition", -0.55]
]}

====

# experiment_summary: HUVEC growth inhibition – cell-based, human, primary screen (AID 575);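 note: 100% = median of untreated cell wells with 0.1% DMSO on each plate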
# protocol_conditions: HUVEC proliferation, CellTiter-Glo luminescence, 72 h; at 10 µM; active compounds read low
Readings of viability for the listed compounds
result_type: viability (%)

{"columns": ["compound", "uom", "quantitative_result"],
 "data": [
  ["COc1ccc(-c2nc(CS(=O)CC(=O)NCc3ccccn3)c(C)o2)cc1 (stereo not drawn)", "%", 92.9],
  ["CCC(C)NC(=O)CS(=O)(=O)Cc1nc(-c2cccc(OC)c2)oc1C (stereo not drawn)", "%", 97.6],
  ["CC(C)c1nccn1S(=O)(=O)c1cc(Cl)ccc1Cl", "%", 92.2],
  ["COc1cccc(-c2nnc(NC(C)=O)o2)c1", "%", 103],
  ["CCC(C)C(=O)Nc1nc2c(s1)C(=O)CC(C)(C)C2 (stereo not drawn)", "%", 97.1],
  ["COc1ccc(-c2nnc(SCC(=O)NC(C)c3ccccc3)o2)cc1 (stereo not drawn)", "%", 82],
  ["O=C(NCc1cccs1)C(Cc1ccccc1)n1cccc1 (stereo not drawn)", "%", 106],
  ["COc1cccc(-c2nc(CS(=O)(=O)CC(=O)Nc3cc(C)ccc3C)c(C)o2)c1", "%", 70.7],
  ["COc1ccccc1CNC(=O)C1CCCN(S(=O)(=O)c2cccc3cccnc23)C1 (stereo not drawn)", "%", 111],
  ["CCOc1ccc(NS(=O)(=O)c2cc(Cl)ccc2OC)cc1", "%", 91],
  ["CCc1ccc(N2CC34C=CC(O3)C(C(=O)OC)C4C2=O)cc1 (stereo not drawn)", "%", 96.7],
  ["CCOC(=O)c1csc(NC(=O)C2CCCCC2)n1", "%", 95],
  ["COc1ccc(C2CC(=O)C(C=NCCCN3CCOCC3)=C(O)C2)cc1 (stereo not drawn)", "%", 102],
  ["Cc1ccc(N(C(=O)c2ccncc2)C2C=CS(=O)(=O)C2)cc1 (stereo not drawn)", "%", 101],
  ["CCOC(=O)N1CCN(C(=O)c2ccc(CS(=O)(=O)c3c(Cl)cccc3Cl)o2)CC1", "%", 107],
  ["CCOC(=O)c1cccc(NC2c3ccccc3C(=O)N2Cc2ccco2)c1 (stereo not drawn)", "%", 76.2],
  ["COc1ccccc1N1CCN(CC(O)c2ccc3cc[nH]c3c2)CC1 (stereo not drawn)", "%", 95.6],
  ["COc1cccc(C2CC(c3ccc(C)cc3)n3nc(N)nc3N2)c1 (stereo not drawn)", "%", 95.3],
  ["Cc1c(NC(=O)c2noc3c2CCc2ccccc2-3)c(=O)n(-c2ccccc2)n1C", "%", 102],
  ["COC(=O)C1=C(C)Nc2nnnn2C1c1ccc(Cl)cc1Cl (stereo not drawn)", "%", 114],
  ["CC1CCc2nn(CC(=O)NCc3ccc(F)cc3)cc2C1 (stereo not drawn)", "%", 79.4],
  ["Cc1c(C(=O)OCCOC(C)C)[nH]c2c1C(=O)CC(c1ccco1)C2 (stereo not drawn)", "%", 50.2],
  ["CCOC(=O)c1cccc(NC(=O)CNS(=O)(=O)c2cccs2)c1", "%", 97]
]}

====

Readings of inhibition for the listed compounds
# experiment_summary: yeast transport mutant growth inhibition pilot in 384-well plates, post-Golgi transport modulator project (AID 636)
# protocol_conditions: absorbance 615 nm, about 18 h, active compounds read high
result_type: inhibition (%)

{"columns": ["compound", "result_type", "quantitative_result"],
 "data": [
  ["CN(CC(=O)N1CCCCC1)S(=O)(=O)c1cccc2cccnc12", "inhibition", -0.4],
  ["COc1cccc(C2=NOC(C(=O)N3CCN(c4ccccc4)CC3)C2)c1OC (stereo not given)", "inhibition", -6.13],
  ["COc1ccc(-c2nc(CSCC(=O)NCc3ccc4c(c3)OCO4)c(C)o2)cc1OC", "inhibition", -4],
  ["Cc1ccc(C2c3c(oc4ccccc4c3=O)C(=O)N2c2nnc(C(C)C)s2)o1 (stereo not given)", "inhibition", -5.2],
  ["Cc1cc(C)nc(/N=C2\\NC(=O)CC(C(=O)O)N2c2ccc(Cl)cc2)n1 (stereo not given)", "inhibition", -6.53]
]}

====

Readings of Her2 level for the listed molecules
# measured_on: Receptor tyrosine-protein kinase erbB-2 (Homo sapiens) (UniProt P04626)
# Sequence (P04626 whole entry, looked up): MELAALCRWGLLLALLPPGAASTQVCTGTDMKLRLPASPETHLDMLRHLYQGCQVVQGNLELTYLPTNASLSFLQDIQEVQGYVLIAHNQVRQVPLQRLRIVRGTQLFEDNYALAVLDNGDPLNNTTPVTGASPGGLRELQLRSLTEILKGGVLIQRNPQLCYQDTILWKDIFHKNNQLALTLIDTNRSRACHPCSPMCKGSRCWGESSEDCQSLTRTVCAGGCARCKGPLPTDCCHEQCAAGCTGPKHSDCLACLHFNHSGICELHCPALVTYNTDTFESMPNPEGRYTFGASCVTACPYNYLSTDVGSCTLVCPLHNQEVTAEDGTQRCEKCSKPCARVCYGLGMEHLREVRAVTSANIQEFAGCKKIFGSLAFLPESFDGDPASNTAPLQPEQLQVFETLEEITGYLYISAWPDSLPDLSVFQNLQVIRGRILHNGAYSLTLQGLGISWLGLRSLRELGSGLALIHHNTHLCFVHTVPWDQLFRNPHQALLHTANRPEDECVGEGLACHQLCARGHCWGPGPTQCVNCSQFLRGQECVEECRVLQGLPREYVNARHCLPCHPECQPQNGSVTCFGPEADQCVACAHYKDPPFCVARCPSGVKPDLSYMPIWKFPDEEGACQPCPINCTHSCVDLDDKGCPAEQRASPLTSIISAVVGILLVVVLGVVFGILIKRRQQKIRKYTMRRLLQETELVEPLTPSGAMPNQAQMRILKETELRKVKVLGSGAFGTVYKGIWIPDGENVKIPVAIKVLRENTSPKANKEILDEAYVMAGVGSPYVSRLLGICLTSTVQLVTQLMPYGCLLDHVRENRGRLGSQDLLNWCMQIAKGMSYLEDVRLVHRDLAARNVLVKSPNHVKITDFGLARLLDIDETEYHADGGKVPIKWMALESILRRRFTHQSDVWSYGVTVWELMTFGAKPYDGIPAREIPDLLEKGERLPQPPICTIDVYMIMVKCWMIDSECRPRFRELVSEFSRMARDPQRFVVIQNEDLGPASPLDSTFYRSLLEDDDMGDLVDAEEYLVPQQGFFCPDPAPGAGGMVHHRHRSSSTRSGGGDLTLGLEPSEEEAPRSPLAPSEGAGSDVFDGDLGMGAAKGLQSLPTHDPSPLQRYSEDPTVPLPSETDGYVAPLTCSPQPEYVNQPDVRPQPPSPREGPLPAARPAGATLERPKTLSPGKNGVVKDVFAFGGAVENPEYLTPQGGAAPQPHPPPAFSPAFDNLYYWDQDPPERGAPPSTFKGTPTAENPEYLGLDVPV
# experiment_summary: Her2 expression decrease, cell viability multiplex – SKBR3 breast tumor cells, AlphaScreen, ATP viability, primary screen (AID 461);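 note: lower value means less Her2 protein in the cells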
# protocol_conditions: 18-24 h, at 10 µM, active compounds read low

{"columns": ["molecule", "measured_on", "Her2 level / %"],
 "data": [
  ["CC(C)Cc1nnc(NS(=O)(=O)c2ccc(Cl)cc2)s1", "Receptor tyrosine-protein kinase erbB-2 (Homo sapiens) (UniProt P04626)", 98],
  ["O=C1NC(=O)C(CC(=O)N(Cc2ccco2)C2(C(=O)NC3CCCC3)CCCCC2)N1 (stereo unspecified)", "Receptor tyrosine-protein kinase erbB-2 (Homo sapiens) (UniProt P04626)", 116],
  ["O=C(CCNS(=O)(=O)c1cccc2nsnc12)Nc1ccc2c(c1)OCCO2", "Receptor tyrosine-protein kinase erbB-2 (Homo sapiens) (UniProt P04626)", 96],
  ["CCC(C)(NC(=O)c1ccc(=O)[nH]c1)C(=O)NC1CCCC1 (stereo unspecified)", "Receptor tyrosine-protein kinase erbB-2 (Homo sapiens) (UniProt P04626)", 96.5],
  ["COc1ccc(-n2ncc3c(N4CCC(C)CC4)ncnc32)cc1", "Receptor tyrosine-protein kinase erbB-2 (Homo sapiens) (UniProt P04626)", 106],
  ["Cn1cnc2cc(NC(=O)c3ccc(Cl)cc3)ccc21", "Receptor tyrosine-protein kinase erbB-2 (Homo sapiens) (UniProt P04626)", 90.5],
  ["CCn1cc(SCC(=O)Nc2cc(C)on2)c2ccccc21", "Receptor tyrosine-protein kinase erbB-2 (Homo sapiens) (UniProt P04626)", 84],
  ["COC(=O)c1cn(NC(=O)C2CCCO2)c(=O)c2ccccc12 (stereo unspecified)", "Receptor tyrosine-protein kinase erbB-2 (Homo sapiens) (UniProt P04626)", 76],
  ["c1ccc2c(c1)Cc1cc(CN3CCOCC3)ccc1-2", "Receptor tyrosine-protein kinase erbB-2 (Homo sapiens) (UniProt P04626)", 100],
  ["O=C(CC1(O)C(=O)Nc2ccccc21)c1ccc2c(c1)OCO2 (stereo unspecified)", "Receptor tyrosine-protein kinase erbB-2 (Homo sapiens) (UniProt P04626)", 93.5],
  ["COc1ccc(NS(=O)(=O)c2coc(C(N)=O)c2)cc1Cl", "Receptor tyrosine-protein kinase erbB-2 (Homo sapiens) (UniProt P04626)", 110]
]}
